Attribute: log10(TGI)
Test system: SN12C renal
Experimental details: NCI tumour cell line growth inhibition, 48 h
log10 TGI, µM

Worked examples follow.
INSERT INTO results (structure_as_smiles, value_type, test_value) VALUES
  ('O=C(Nc1cccc(-n2ccc3c(NC(=O)c4ccccc4)nccc32)c1)Nc1cc(C(F)(F)F)cc(C(F)(F)F)c1', 'log10(TGI)', 1.47),
  ('CN(C)CC(C)(C)C(=O)/C=C/c1ccc(/C=C/C(=O)C(C)(C)CN(C)C)cc1', 'log10(TGI)', 0.55),
  ('[N-]=[N+]=C1N=CN=C1c1ncn[nH]1', 'log10(TGI)', 1.97),
  ('CCCNNC(=O)/C=C/c1ccc(CNCCc2c(C)[nH]c3ccccc23)cc1', 'log10(TGI)', 0.58),
  ('CC(=O)O[C@H]1CC[C@@]2(C)C(=CC[C@H]3[C@@H]4CC[C@H](c5cc(C(F)(F)F)n(C(C)=O)n5)[C@@]4(C)CC[C@@H]32)C1', 'log10(TGI)', 1.32),
  ('CC(=O)[CH-]C(C)=O.CC(=O)[CH-]C(C)=O.[CH2-]CCC.[CH2-]CCC.[Sn+4]', 'log10(TGI)', 0.22);

With those in mind, consider the next compound.
stdin: Given `C#Cc1cccc(N2C(=O)CCC2=O)c1` , state its recorded log10(TGI).
stdout: 1.53

====

Tested on: MCF7 breast
Experimental details: NCI tumour cell line growth inhibition, 48 h
Value type: GI50

Worked examples follow.
INSERT INTO results (compound, test_value) VALUES
  ('CCOc1ccc2nc(SCc3nc4n(n3)S(=O)(=O)c3ccccc3N4C)sc2c1', '> 100 µM'),
  ('CCOC(=O)N1CCN(c2nc(Nc3cc(C)[nH]n3)c3ccccc3n2)CC1', '4.61 µM'),
  ('COc1ccc(S(=O)(=O)N2CC(C)(C)CN(S(=O)(=O)c3ccc(OC)cc3)C2C(=O)NO)cc1', '> 20 µM'),
  ('Cc1cc(S(=O)(=O)Nc2nc3cscc3c(=O)n2Cc2ccccc2)c(S)cc1Cl', '39.1 µM'),
  ('Cc1nc(SCC(=O)Nc2nc(-c3ccc(Cl)cc3)cs2)n(Nc2ccccc2)c1C', '2.94 µM');

stdin: For MCF7 breast, provide GI50 of `COc1cc(OC)cc(N(CCNC(C)C)c2ccc3ncc(-c4cnn(C)c4)nc3c2)c1` please.
stdout: 10.5 µM

stdin: For MCF7 breast, provide GI50 of `COc1ccc(C(=O)/C=C/c2ccc(C)cc2)cc1OC` please.
stdout: 3.09 µM

stdin: For MCF7 breast, provide GI50 of C=C1C(O)C2C(=C(CCc3ccccc3)C13CC3)C(=O)C(C)(CO)C2O (stereo unspecified) please.
stdout: 53.5 µM

stdin: For MCF7 breast, provide GI50 of `O=C(CO[N+](=O)[O-])Nc1ccc(C(=O)/C=C/c2ccc(Cl)cc2)cc1` please.
stdout: 0.666 µM

stdin: For MCF7 breast, provide GI50 of `COc1cc(/C=C2\C(=O)Nc3cc(C)c(O)cc32)cc(OC)c1OC` please.
stdout: 2.44 µM

stdin: For MCF7 breast, provide GI50 of `Cc1ccc(-c2csc(/N=C3\C(=O)Nc4ccccc43)n2)cc1` please.
stdout: 1.01 µM

Taken from PubChem BioAssay (NCI).
